Reference source: patent US7173108B2

Tested on: isolated HLA-DR4 molecules
PROCEDURE_TEXT: binding inhibition assay with biotinylated invariant chain indicator peptide
Parameters: species or system human
PROTOCOL_CONDITIONS: HLA-DR4 10 μg/ml, indicator peptide 1 μM, overnight at room temperature; FIG. 3
Method: Synthetic peptides with amino acid sequences based on the 6 core regions identified by the IMF were tested for their ability to bind to isolated HLA-DR4 molecules in a binding inhibition assay performed essentially as previously described [Chicz et al. (1997), J. Immunol. 159: 4935–4942]. […]
READOUT_NAME: binding to HLA-DR4 molecules (inhibition of binding of Ii indicator peptide)

{"columns": ["SUBSTANCE", "MEASUREMENT"],
 "data": [
  ["VSSVSSQFSDAAQASPSSHSS (listed as Homo sapiens) [R4, peptide consisting of residues 654–674 of IA-2]", "bind strongly"],
  ["Ii-c: peptide consisting of residues 98–117 of class II MHC invariant chain; same as the indicator peptide (PKPPKPVSKMRMATPLLMQA) [reference compound]", "intermediate avidity"],
  ["SKDQFEFALTAVAEEVNAILK (listed as Homo sapiens) [R6, peptide consisting of residues 955–975 of IA-2]", "intermediate avidity"],
  ["FYLKNVQTQETRTLTQFHF (listed as Homo sapiens) [R2, peptide consisting of residues 854–872 of IA-2]", "bind weakly"],
  ["LKVESSPSRSDYINASPII (listed as Homo sapiens) [R3, peptide consisting of residues 753–771 of IA-2]", "bind weakly"]
]}

Input: Returns the measured binding to HLA-DR4 molecules (inhibition of binding of Ii indicator peptide) for the input substance. Input: LAKEWQALCAYQAEPNTCATAQGE (listed as Homo sapiens) [R5, peptide consisting of residues 709–732 of IA-2]
Output: bind strongly

Input: Param item = MVWESGCTVIVMLTPLVEDGV (listed as Homo sapiens) [R1, peptide consisting of residues 797–817 of IA-2] ; retrieve measured binding to HLA-DR4 molecules (inhibition of binding of Ii indicator peptide).
Output: intermediate avidity
